- experimental system: EGFR on EGFR positive non-small cell lung cancer cells NCI-H1650 (UniProt P00533 25-1210)
- assay comment: cell-based or functional assay
value kind: H1650 CTG-3D EC50

[[record]]
binder = "AbK-YY (antibody, human IgG1, kappa, V domains shown, synthon YY on reduced interchain cysteines; average DAR 1.7 per ADC) VH: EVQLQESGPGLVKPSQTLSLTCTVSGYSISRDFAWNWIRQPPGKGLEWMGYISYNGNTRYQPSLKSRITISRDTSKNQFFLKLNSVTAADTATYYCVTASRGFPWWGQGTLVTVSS VL: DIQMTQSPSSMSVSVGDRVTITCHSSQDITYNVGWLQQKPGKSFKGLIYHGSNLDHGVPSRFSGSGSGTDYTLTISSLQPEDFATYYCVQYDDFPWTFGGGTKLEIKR"
value_observed = "0.49 µg/mL"

[[record]]
binder = "AbG-WD (antibody, human IgG1, kappa, V domains shown, synthon WD on reduced interchain cysteines; average DAR 3.4 per ADC) VH: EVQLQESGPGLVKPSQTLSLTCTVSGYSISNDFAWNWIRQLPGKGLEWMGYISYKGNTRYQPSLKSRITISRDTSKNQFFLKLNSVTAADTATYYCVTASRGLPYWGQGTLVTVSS VL: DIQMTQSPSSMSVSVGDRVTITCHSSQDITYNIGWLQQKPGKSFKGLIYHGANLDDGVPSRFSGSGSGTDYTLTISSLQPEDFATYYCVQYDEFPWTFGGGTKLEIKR"
value_observed = "2.03 µg/mL"

[[record]]
binder = "AbB-SE (antibody, human IgG1, kappa, V domains shown, synthon SE on reduced interchain cysteines; average DAR 2.2 per ADC) VH: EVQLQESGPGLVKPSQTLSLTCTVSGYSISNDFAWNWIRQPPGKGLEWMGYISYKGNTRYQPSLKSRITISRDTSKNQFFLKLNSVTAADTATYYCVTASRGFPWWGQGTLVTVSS VL: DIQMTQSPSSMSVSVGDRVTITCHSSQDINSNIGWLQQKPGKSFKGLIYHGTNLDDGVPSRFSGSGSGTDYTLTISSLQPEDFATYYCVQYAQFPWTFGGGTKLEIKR"
value_observed = "0.59 µg/mL"

[[record]]
binder = "AbG-YY (antibody, human IgG1, kappa, V domains shown, synthon YY on reduced interchain cysteines; average DAR 2.2 per ADC) VH: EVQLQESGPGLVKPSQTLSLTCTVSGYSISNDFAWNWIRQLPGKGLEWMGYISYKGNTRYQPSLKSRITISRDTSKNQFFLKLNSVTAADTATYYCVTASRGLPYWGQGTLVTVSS VL: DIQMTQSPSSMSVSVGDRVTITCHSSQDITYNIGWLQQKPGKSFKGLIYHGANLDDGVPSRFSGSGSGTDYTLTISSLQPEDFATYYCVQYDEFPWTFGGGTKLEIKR"
value_observed = "0.4 µg/mL"

[[record]]
binder = "AbG-LB (antibody, human IgG1, kappa, V domains shown, synthon LB on reduced interchain cysteines; average DAR 2.5 per ADC) VH: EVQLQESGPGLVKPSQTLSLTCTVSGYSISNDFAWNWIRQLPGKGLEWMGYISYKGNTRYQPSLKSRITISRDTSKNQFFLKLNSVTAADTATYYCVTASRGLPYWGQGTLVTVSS VL: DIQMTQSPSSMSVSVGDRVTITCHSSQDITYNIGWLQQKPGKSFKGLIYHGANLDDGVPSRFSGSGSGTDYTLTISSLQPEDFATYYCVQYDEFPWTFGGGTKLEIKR"
value_observed = "1.68 µg/mL"

[[record]]
binder = "AbG-TX (antibody, human IgG1, kappa, V domains shown, synthon TX on reduced interchain cysteines; average DAR 3.3 per ADC) VH: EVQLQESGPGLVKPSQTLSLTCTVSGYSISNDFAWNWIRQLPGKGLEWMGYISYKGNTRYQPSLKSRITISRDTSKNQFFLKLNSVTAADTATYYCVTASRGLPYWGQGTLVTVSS VL: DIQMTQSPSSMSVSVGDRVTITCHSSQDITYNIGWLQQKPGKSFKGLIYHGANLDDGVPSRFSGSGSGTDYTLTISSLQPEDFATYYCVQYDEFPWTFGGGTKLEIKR"
value_observed = "0.15 µg/mL"

[[record]]
binder = "AbG-ZZ (antibody, human IgG1, kappa, V domains shown, synthon ZZ on reduced interchain cysteines; average DAR 1.4 per ADC) VH: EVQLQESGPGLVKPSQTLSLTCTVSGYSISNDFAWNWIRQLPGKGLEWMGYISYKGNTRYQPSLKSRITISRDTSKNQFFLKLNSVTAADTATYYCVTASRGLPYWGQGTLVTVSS VL: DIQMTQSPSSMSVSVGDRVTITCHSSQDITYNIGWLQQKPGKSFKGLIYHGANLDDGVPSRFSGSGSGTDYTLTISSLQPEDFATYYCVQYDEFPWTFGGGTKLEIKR"
value_observed = "0.47 µg/mL"

[[record]]
binder = "AbG-CZ (antibody, human IgG1, kappa, V domains shown, synthon CZ on reduced interchain cysteines; average DAR 3.4 per ADC) VH: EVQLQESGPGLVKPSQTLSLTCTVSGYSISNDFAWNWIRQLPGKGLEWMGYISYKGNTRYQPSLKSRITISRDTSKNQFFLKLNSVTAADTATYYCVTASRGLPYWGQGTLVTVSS VL: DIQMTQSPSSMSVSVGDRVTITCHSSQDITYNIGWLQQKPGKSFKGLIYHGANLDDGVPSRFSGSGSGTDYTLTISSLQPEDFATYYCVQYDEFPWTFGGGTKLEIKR"
value_observed = "0.07 µg/mL"

[[record]]
binder = "AbK-SR (antibody, human IgG1, kappa, V domains shown, synthon SR on reduced interchain cysteines; average DAR 2.3 per ADC) VH: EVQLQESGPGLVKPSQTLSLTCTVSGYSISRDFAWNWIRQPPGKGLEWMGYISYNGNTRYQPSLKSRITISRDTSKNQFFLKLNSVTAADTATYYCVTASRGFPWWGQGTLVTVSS VL: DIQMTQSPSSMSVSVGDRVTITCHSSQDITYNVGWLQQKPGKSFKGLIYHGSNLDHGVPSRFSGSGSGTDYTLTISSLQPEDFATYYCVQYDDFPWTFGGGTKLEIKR"
value_observed = "1.74 µg/mL"

[[record]]
binder = "AbA-TV (antibody, human IgG1, kappa, V domains shown, synthon TV on reduced interchain cysteines; average DAR 3.7 per ADC) VH: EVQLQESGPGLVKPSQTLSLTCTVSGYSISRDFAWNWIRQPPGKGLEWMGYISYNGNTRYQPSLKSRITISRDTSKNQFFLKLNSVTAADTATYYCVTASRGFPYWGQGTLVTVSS VL: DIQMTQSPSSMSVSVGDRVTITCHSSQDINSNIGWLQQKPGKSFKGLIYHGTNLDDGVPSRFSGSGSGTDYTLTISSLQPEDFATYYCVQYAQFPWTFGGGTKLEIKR"
value_observed = "0.34 µg/mL"


The measured values listed here are drawn from patent US20240199745A1.
